Target: T1, LIN28Δ (human, UniProt Q9H9Z2 16-187)
T1 sequence: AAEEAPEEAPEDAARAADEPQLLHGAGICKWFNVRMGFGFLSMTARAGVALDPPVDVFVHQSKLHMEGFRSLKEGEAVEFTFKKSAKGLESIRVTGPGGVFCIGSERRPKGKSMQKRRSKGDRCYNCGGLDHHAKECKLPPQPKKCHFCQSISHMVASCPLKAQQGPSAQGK
Assay: competition
Attribute: pIC50
// field semantics: pIC50 = negative decimal log of concentration (mol/L)

1) GGGGUAGUGAUUUUACCCUGUUUA (structured_RNA) [CSD-binding riboprobe]    6.80

Attention now shifts to the item below.
GET /values?readout=pIC50&item= GGGGUAGUGAUUUUACCCUGUUUAGGAGAU (structured_RNA) [preE-let-7f-1 unlabeled]
7.36

Hello, the source for this data is paper PMC6511231, in case you need it.
